Hey, just so you know, these numbers are from ChEMBL document CHEMBL4513216.

experiment: Toxicity liver stage against HepG2, at 10uM; format: cell-based; design: test concentration 10 uM, cell line HepG2-A16-CD81EGFP; settings: human, HepG2-A16-CD81EGFP cells; read-out: INHIBITION
Can you tell me cytotoxicity at 10 µM for the items I'm about to list?
Use % as the unit, but write only the number.

QUERY: Give the measured cytotoxicity at 10 µM of CC(=O)c1c(F)cccc1NC1CCN(C(=O)C2CCCCC2)CC1 .
RESULT: 20.7

QUERY: Please do the same for Cc1ncsc1CNc1ccn(Cc2ccccc2)n1 as well.
RESULT: 9.58

QUERY: Please do the same for Cc1cc(NC(=O)CN(C)CC2CCCN2c2cccnn2)n(C)n1 (configuration not stated) as well.
RESULT: 7.85

QUERY: Please do the same for Cn1cccc1C(=O)N1CCCC2(CCCN2Cc2cccnc2)C1 (configuration not stated) as well.
RESULT: 2.88

QUERY: Please do the same for CCC(O)CN1CCN(C(=O)CCSC)CC1 (configuration not stated) as well.
RESULT: -3.5

QUERY: Please do the same for Cc1ccc(NC(=O)Cn2cc(I)cn2)cc1 as well.
RESULT: 9.06

QUERY: Please do the same for O=C1C[C@H]2[C@@H](CCN2C(=O)Cc2cccs2)N1Cc1cccnc1 as well.
RESULT: 7.48

QUERY: Please do the same for Cc1noc(-c2ccc(N3CCCC(C(=O)N4CCSCC4)C3)nc2)n1 (configuration not stated) as well.
RESULT: -2.45

QUERY: Please do the same for Clc1ccccc1CN1CCCC(c2nnc(-c3cnccn3)o2)C1 (configuration not stated) as well.
RESULT: -10.3

QUERY: Please do the same for CS(=O)(=O)c1cccc(S(=O)(=O)NC(=O)CCC2CCCCC2)c1 as well.
RESULT: 0.848

QUERY: Please do the same for CN(C)C(=O)c1ccccc1NCCCOc1cccc(C#N)c1 as well.
RESULT: 4.52

QUERY: Please do the same for COc1ccc(CC(=O)N2CCN(Cc3ccco3)C[C@@H]2C)cc1 as well.
RESULT: 1.42

QUERY: Please do the same for O=C(C1CCCCC1)N1CCC(c2n[nH]c3nccnc23)CC1 as well.
RESULT: 4.05

QUERY: Please do the same for FC1(F)CCN(Cc2ccncc2)CC12CCN(c1cccnc1)C2 (configuration not stated) as well.
RESULT: -94.8

QUERY: Please do the same for CC(NC(=O)NCCN1CCCCCC1=O)c1ccc(Cl)s1 (configuration not stated) as well.
RESULT: -0.331

QUERY: Please do the same for CSCC(=O)N1CCCC(CCC(=O)N(C)CCc2ccccn2)C1 (configuration not stated) as well.
RESULT: -3.09

QUERY: Please do the same for CSc1nccn1-c1cccc(C(=O)NCCN2CCS(=O)(=O)CC2)c1 as well.
RESULT: -3.97

QUERY: Please do the same for Cc1cc(-c2cnc(NCc3ccccn3)nc2C(C)C)on1 as well.
RESULT: -1.51

QUERY: Please do the same for COc1ccc(C(=O)NC2CC2)c(OC2CCN(CCCSC)CC2)c1 as well.
RESULT: -1.76

QUERY: Please do the same for Cc1ccnc2c1NC(=O)CN2C(=O)CCc1ccccc1 as well.
RESULT: -20.1

QUERY: Please do the same for CCN(CC)Cc1cnc2n1CCN(C1CCOC1)CC2 (configuration not stated) as well.
RESULT: -146

QUERY: Please do the same for CS(=O)(=O)c1cccc(C(N)c2ccccc2)c1 (configuration not stated) as well.
RESULT: -19.3

QUERY: Please do the same for Cc1cc(O)c(OCC(=O)Nc2nc3c(s2)CCCCC3)cn1 as well.
RESULT: 3.93

QUERY: Please do the same for CCCc1cnc(C)nc1N1CCC(F)(F)CC1 as well.
RESULT: 7.46

QUERY: Please do the same for Cc1cc(S(=O)(=O)N(CCO)C2CC2)ccc1F as well.
RESULT: 0.866

QUERY: Please do the same for COc1cc2c(cc1CN1CCn3c(CO)nnc3C1)CCC2 as well.
RESULT: -4.05

QUERY: Please do the same for CC(=O)Nc1cccc(C(C)NCC2CCS(=O)(=O)CC2)c1 (configuration not stated) as well.
RESULT: 0.224

QUERY: Please do the same for Cc1ccc(C)c(NC(=O)N2C[C@H](N(C)C)C[C@H]2CO)c1 as well.
RESULT: -0.861

QUERY: Please do the same for CN1CCC/C1=N\S(=O)(=O)c1ccc(NC(=O)c2cccs2)cc1 as well.
RESULT: -3.34

QUERY: Please do the same for CN(CC(=O)N(C)C)Cc1ccc(C#N)cc1F as well.
RESULT: 6.56

QUERY: Please do the same for COCCCn1ccc(NC(=O)NCc2cccc(N(C)C)c2)n1 as well.
RESULT: 2.4

QUERY: Please do the same for O=C(Nc1cccnc1)[C@H]1C[C@@H]2CCN(c3nncs3)C[C@H]2O1 as well.
RESULT: -13.3

QUERY: Please do the same for c1cncc(CN(Cc2ccc3c(c2)OCCO3)CC2CCCO2)c1 (configuration not stated) as well.
RESULT: 1.22

QUERY: Please do the same for Cc1noc(C)c1CCC(=O)N1CCN(CCn2cccn2)CC1 as well.
RESULT: -24.2

QUERY: Please do the same for CC(=O)N1CCc2ncc(CNC(=O)C3CCC3)n2CC1 as well.
RESULT: 7.48

QUERY: Please do the same for Cc1c(C(=O)N2CCC3(CCC(=O)N(CCN(C)C)C3)CC2)ccn1C as well.
RESULT: -4.06

QUERY: Please do the same for O=C([C@H]1COC[C@H]2CN(c3ncc(F)cn3)C[C@H]21)N1CCOCC1 as well.
RESULT: -5.58

QUERY: Please do the same for COCCC1COC2(CCN(C(C)=O)CC2)C1 (configuration not stated) as well.
RESULT: 8.19

QUERY: Please do the same for Cc1cc(OCc2cccc(F)c2)ccc1NC(=O)C(C)NC(N)=O (configuration not stated) as well.
RESULT: -1.47

QUERY: Please do the same for CCc1nnsc1C(=O)N(C)Cc1ccc(C)o1 as well.
RESULT: -46.5

QUERY: Please do the same for CC(=O)N1Cc2nccn2CC(CNC(=O)c2cccnc2)C1 (configuration not stated) as well.
RESULT: -146

QUERY: Please do the same for C=C1C(C)(C)[C@@H]2CC[C@]1(C(=O)N1CCC(n3cc(CO)nn3)CC1)C2 as well.
RESULT: -7.73
